The values you see were collected from paper PMC6045348.

- ASSAYED_TARGET: Ser–Thr PP-1 catalytic subunit (PP1c) (Oryctolagus cuniculus)
- Sequence (P62139 2-330): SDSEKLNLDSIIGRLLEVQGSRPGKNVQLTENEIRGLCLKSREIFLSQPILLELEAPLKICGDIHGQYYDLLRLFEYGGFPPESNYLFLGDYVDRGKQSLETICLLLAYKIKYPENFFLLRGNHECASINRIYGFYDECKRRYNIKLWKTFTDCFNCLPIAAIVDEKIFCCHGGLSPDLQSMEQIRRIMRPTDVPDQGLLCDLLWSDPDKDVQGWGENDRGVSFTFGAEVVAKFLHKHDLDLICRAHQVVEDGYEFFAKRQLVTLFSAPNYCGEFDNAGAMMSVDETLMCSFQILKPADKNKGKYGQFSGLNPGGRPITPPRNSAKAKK
- ASSAY_DETAILS: DiFMUP fluorescence phosphatase assay, residual activity […] at […]
OBSERVATION_TYPE: IC50

Task: # get_value(readout='IC50', item= CN1C[C@@H](c2c[nH]c3cc(Br)ccc23)NC[C@@H]1c1c[nH]c2cc(Br)ccc12 [compound 3, dragmacidin A] )
Result: ~10 µM
